Molecular target: human Nav1.7 (Homo sapiens (Human))
Assay: FLIPR sodium dye assay (CoroNa Green AM Na+ dye, primary fluorescence assay)
Assay type: cell-based
Settings: recombinant Nav1.7/HEK293 cells
METRIC NAME: IC50 (µM)
State the answer as a number, implicitly in µM.

Given item O=C1CN(Cc2cc(C(F)(F)F)ccc2Oc2ccc(-c3cccc([C@H](O)CO)n3)cc2)CCN1 [compound 74] , the value recorded as its IC50 is 0.672

Given item CN(C)Cc1cc(C(F)(F)F)ccc1Oc1ccc(-c2cccc(C(N)=O)n2)cc1 [compound 39] , the value recorded as its IC50 is 0.179

Given item NC(=O)c1cccc(-c2ccc(Oc3ccc(C(F)(F)F)cc3CN3CCC[C@H]3CO)cc2)n1 [compound 41] , the value recorded as its IC50 is 1.13

Given item CCN(C)Cc1cc(C(F)(F)F)ccc1Oc1ccc(-c2cccc(C(N)=O)n2)cc1 [compound 117] , the value recorded as its IC50 is 0.066

Given item NC(=O)c1cccc(-c2ccc(Oc3ccc(F)cc3)c(-c3ccc(Cl)cc3)c2)n1 [compound 100] , the value recorded as its IC50 is 0.276

Given item NC(=O)c1cccc(-c2ccc(Oc3ccc(F)cc3)cc2C(F)(F)F)n1 [compound 91] , the value recorded as its IC50 is 0.577

Given item NC(=O)c1cccc(-c2ccc(Oc3ccc(C(F)(F)F)cc3CN3CCCCC3)cc2)n1 [compound 49] , the value recorded as its IC50 is 0.096

Given item CCN(CCO)Cc1cc(C(F)(F)F)ccc1Oc1ccc(-c2cccc(C(N)=O)n2)cc1 [compound 119] , the value recorded as its IC50 is 0.59

----------
Exercise: state measured log10 IC50 for each of the compounds provided.
Biological target: human Nav1.7 (Homo sapiens (Human))
Experiment: FLIPR sodium dye assay (CoroNa Green AM Na+ dye, primary fluorescence assay)
Format: cell-based
Details: recombinant Nav1.7/HEK293 cells
Form field - Quantity: IC50; Unit: µM; Scale: log10

Given item NC(=O)c1cccc(-c2ccc(Oc3ccc(F)cc3)cc2F)n1 , the value recorded as its log10 IC50 is -0.26

Given item NC(=O)c1cccc(-c2ccc(Oc3ccc(F)cc3)c(CN3CCCC3)c2)n1 , the value recorded as its log10 IC50 is 0.63

Given item NC(=O)c1cccc(-c2ccc(Oc3ccc(C(F)(F)F)cc3C(C(=O)N3CCCC3)N3CCCC3)cc2)n1 (centres unmarked) , the value recorded as its log10 IC50 is 0.82

Given item NC(=O)c1cccc(-c2ccc(Oc3ccc(C(F)(F)F)cc3C(=O)C(=O)N3CCCC3)cc2)n1 , the value recorded as its log10 IC50 is 0.43

Given item NC(=O)c1cccc(-c2ccc(Oc3ccc(C(F)(F)F)c(CNCCC(F)(F)F)c3)cc2)n1 , the value recorded as its log10 IC50 is -0.76

Given item NC(=O)c1cccc(-c2ccc(Oc3ccc(C(F)(F)F)cc3C(O)C(=O)N3CCCC3)cc2)n1 (centres unmarked) , the value recorded as its log10 IC50 is -0.67

Given item COc1ncccc1-c1cc(C#N)ccc1Oc1ccc(-c2cccc(C(N)=O)n2)cc1 , the value recorded as its log10 IC50 is -0.82

Given item CC(c1cc(C(F)(F)F)ccc1Oc1ccc(-c2cccc(C(N)=O)n2)cc1)N1CCCC1 (centres unmarked) , the value recorded as its log10 IC50 is -0.64

----------
Target: human Nav1.7 (Homo sapiens (Human), UniProt Q15858)
Sequence (Q15858 other isoform, or with tags, fused parts or gaps): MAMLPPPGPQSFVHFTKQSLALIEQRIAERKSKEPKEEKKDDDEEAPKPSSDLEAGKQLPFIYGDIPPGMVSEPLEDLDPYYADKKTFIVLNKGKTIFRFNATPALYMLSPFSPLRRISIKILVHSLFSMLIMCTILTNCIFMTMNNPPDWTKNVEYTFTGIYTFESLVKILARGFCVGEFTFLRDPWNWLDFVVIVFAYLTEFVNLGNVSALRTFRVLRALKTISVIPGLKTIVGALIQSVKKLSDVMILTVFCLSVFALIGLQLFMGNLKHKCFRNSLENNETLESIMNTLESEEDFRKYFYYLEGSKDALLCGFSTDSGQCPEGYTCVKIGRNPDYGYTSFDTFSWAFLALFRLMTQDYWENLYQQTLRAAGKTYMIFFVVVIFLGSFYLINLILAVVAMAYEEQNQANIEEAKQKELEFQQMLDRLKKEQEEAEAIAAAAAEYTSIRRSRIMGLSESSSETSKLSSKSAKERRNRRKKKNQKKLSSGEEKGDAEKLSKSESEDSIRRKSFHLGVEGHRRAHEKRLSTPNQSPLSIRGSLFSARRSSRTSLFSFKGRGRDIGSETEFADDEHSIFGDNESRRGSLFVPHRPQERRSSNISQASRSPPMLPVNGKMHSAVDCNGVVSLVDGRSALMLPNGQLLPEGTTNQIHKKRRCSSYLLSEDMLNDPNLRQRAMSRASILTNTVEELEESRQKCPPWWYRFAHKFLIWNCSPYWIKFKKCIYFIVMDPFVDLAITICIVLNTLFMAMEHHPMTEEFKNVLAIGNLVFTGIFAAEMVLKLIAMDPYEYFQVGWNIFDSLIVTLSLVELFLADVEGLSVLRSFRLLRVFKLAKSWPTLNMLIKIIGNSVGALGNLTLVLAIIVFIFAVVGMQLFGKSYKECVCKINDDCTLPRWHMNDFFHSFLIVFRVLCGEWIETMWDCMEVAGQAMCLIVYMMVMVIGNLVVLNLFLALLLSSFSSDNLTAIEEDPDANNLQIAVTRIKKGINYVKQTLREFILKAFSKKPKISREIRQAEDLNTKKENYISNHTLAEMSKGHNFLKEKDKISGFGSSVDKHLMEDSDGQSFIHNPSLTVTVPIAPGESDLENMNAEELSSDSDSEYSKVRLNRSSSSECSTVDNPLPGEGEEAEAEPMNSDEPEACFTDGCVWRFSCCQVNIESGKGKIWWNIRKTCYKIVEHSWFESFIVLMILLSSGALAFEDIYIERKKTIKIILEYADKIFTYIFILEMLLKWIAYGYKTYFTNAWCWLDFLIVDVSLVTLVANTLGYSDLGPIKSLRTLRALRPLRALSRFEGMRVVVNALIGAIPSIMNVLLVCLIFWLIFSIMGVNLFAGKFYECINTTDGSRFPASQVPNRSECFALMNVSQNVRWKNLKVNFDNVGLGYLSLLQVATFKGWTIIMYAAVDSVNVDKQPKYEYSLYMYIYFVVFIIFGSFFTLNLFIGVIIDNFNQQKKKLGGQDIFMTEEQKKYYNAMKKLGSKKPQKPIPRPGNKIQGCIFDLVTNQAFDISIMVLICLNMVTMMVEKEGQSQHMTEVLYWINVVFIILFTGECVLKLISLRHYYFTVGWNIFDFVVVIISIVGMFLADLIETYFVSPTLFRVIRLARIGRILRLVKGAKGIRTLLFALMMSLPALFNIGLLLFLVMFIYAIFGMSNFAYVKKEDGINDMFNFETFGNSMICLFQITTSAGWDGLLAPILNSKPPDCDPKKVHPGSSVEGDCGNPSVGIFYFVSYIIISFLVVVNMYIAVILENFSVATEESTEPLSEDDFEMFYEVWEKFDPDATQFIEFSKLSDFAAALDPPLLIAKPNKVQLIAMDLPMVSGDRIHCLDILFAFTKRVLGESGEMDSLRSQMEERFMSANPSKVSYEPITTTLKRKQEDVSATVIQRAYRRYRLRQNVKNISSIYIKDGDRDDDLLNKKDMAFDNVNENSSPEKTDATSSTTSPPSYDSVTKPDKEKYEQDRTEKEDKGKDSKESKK
Assay: FLIPR membrane potential dye assay (alternative fluorescence assay)
Format: cell-based
Conditions: recombinant Nav1.7/HEK293 cells
Quick rule for you: IC50 under 1 µM gets Criterion met, anything else gets Criterion not met.

Query: Is 1 µM strictly greater than the compound's reported IC50? compound: Cn1nccc1-c1cc(C(F)(F)F)ccc1Oc1ccc(-c2nc(N[C@H]3CCNC3=O)cc(C(N)=O)n2)cc1 [compound 126]
Reply: Criterion met

Query: Is 1 µM strictly greater than the compound's reported IC50? compound: NC(=O)c1cc(C(=O)O)nc(-c2ccc(Oc3ccc(C(F)(F)F)cc3CN3CCOCC3)cc2)n1 [compound 132]
Reply: Criterion not met

Query: Is 1 µM strictly greater than the compound's reported IC50? compound: O=C(c1cc(C(F)(F)F)ccc1Oc1ccc(-c2cccc([C@H](O)CO)n2)cc1)N1CC[C@H](O)C1 [compound 170]
Reply: Criterion not met

Query: Is 1 µM strictly greater than the compound's reported IC50? compound: O=C(Nc1nccs1)c1cc(C(F)(F)F)ccc1Oc1ccc(-c2cccc([C@H](O)CO)n2)cc1 [compound 175]
Reply: Criterion not met

Query: Is 1 µM strictly greater than the compound's reported IC50? compound: CCN(CC)C(=O)c1cc(C(F)(F)F)ccc1Oc1ccc(-c2cccc([C@H](O)CO)n2)cc1 [compound 168]
Reply: Criterion met

Query: Is 1 µM strictly greater than the compound's reported IC50? compound: Cn1nccc1-c1cc(C(F)(F)F)ccc1Oc1ccc(-c2nc(C(N)=O)cc([C@H](O)CO)n2)cc1 [compound 122]
Reply: Criterion met

Query: Is 1 µM strictly greater than the compound's reported IC50? compound: C[C@H](Nc1cc(C(N)=O)nc(-c2ccc(Oc3ccc(C(F)(F)F)cc3-c3cnc(N(C)C)cn3)cc2)n1)C(N)=O [compound 134]
Reply: Criterion met

Query: Is 1 µM strictly greater than the compound's reported IC50? compound: C[C@H](Nc1cc(C(N)=O)nc(-c2ccc(Oc3ccc(C(F)(F)F)cc3-c3ccnn3C)cc2)n1)C(N)=O [compound 138]
Reply: Criterion met

Query: Is 1 µM strictly greater than the compound's reported IC50? compound: CCN(CC)Cc1cc(C(F)(F)F)ccc1Oc1ccc(-c2nc(C(N)=O)cc([C@H](O)CO)n2)cc1 [compound 130]
Reply: Criterion not met

Query: Is 1 µM strictly greater than the compound's reported IC50? compound: O=C(NCc1nnn[nH]1)c1cc(C(F)(F)F)ccc1Oc1ccc(-c2cccc([C@H](O)CO)n2)cc1 [compound 176]
Reply: Criterion not met

Query: Is 1 µM strictly greater than the compound's reported IC50? compound: CCN(CCN(C)C)C(=O)c1cc(C(F)(F)F)ccc1Oc1ccc(-c2cccc([C@H](O)CO)n2)cc1 [compound 172]
Reply: Criterion not met

Query: Is 1 µM strictly greater than the compound's reported IC50? compound: NC(=O)C1CCCN(C(=O)c2cc(C(F)(F)F)ccc2Oc2ccc(-c3cccc([C@H](O)CO)n3)cc2)C1 (some centres unmarked) [compound 173]
Reply: Criterion not met

Query: Is 1 µM strictly greater than the compound's reported IC50? compound: CN(C)c1ncc(-c2cc(C(F)(F)F)ccc2Oc2ccc(-c3nc(N[C@H]4CCNC4=O)cc(C(N)=O)n3)cc2)cn1 [compound 128]
Reply: Criterion met

Query: Is 1 µM strictly greater than the compound's reported IC50? compound: Cn1nccc1-c1cc(C(F)(F)F)ccc1Oc1ccc(-c2nccc(C(N)=O)n2)cc1 [compound 125]
Reply: Criterion met

----------
Exercise: state measured IC50 for each of the compounds provided.
Target: human Nav1.7 (Homo sapiens (Human), UniProt Q15858)
Test: FLIPR membrane potential dye assay (alternative fluorescence assay)
Type: cell-based
Conditions: recombinant Nav1.7/HEK293 cells
Protocol: In vitro assays were performed in a recombinant cell line expressing cDNA encoding the alpha subunit (Nav1.7, SCN9a, PN1, NE) of human Nav1.7 (Accession No. NM_002977). […] A fluorescence indicator that can be used in alternative fluorescence assays is the blue version membrane potential dye (MDS, Molecular Devices, Sunnyvale, Calif.), a dye that detects changes in molecules following a change in membrane potential. […]

Given item NC(=O)c1cc([C@H](O)CO)cc(-c2ccc(Oc3ccc(Cl)cc3-c3ccnn3C3CNC3)cc2)n1 [compound 136] , the value recorded as its IC50 is > 20 µM

Given item CCN(CC)Cc1cc(C(F)(F)F)ccc1Oc1ccc(-c2nc(C(N)=O)cc(C(=O)O)n2)cc1 [compound 131] , the value recorded as its IC50 is > 20 µM

Given item C[C@H](Nc1cc(C(N)=O)nc(-c2ccc(Oc3ccccc3-c3ccnn3C)cc2)n1)C(N)=O [compound 139] , the value recorded as its IC50 is 10 to 20 µM

Given item CCN(CCO)C(=O)c1cc(C(F)(F)F)ccc1Oc1ccc(-c2cccc([C@H](O)CO)n2)cc1 [compound 171] , the value recorded as its IC50 is > 20 µM

----------
Target: human Nav1.7 (Homo sapiens (Human))
Experiment: FLIPR sodium dye assay (CoroNa Green AM Na+ dye, primary fluorescence assay)
Type: cell-based
Conditions: recombinant Nav1.7/HEK293 cells
Experimental: In vitro assays were performed in a recombinant cell line expressing cDNA encoding the alpha subunit (Nav1.7, SCN9a, PN1, NE) of human Nav1.7 (Accession No. NM_002977). […] The fluorescence indicator used in the primary fluorescence assay was the cell permeant version of CoroNa™ Green (Invitrogen, Molecular Probes, Eugene, Oreg.), a dye that emits light in the fluorescence range (Harootunian et al., J. Biol. Chem. 264(32):19458-19467 (1989)). […]
METRIC NAME: IC50

Given item NC(=O)c1cccc(-c2ccc(Oc3ccc(F)cc3)c(C(F)(F)F)c2)n1 [compound 90] , the value recorded as its IC50 is > 20 µM

Given item NC(=O)c1cccc(-c2ccc(Oc3ccc(C(F)(F)F)cc3/C=C3\SC(=O)NC3=O)cc2)n1 [compound 155] , the value recorded as its IC50 is > 20 µM

Given item CN(CCO)C(=O)c1cc(C(F)(F)F)ccc1Oc1ccc(-c2cccc(C(N)=O)n2)cc1 [compound 161] , the value recorded as its IC50 is > 20 µM

Given item NC(=O)c1cccc(-c2ccc(Oc3ccc(C(F)(F)F)cc3C(O)CN3CCNC(=O)C3)cc2)n1 (stereo not shown) [compound 79] , the value recorded as its IC50 is > 20 µM

Given item NC(=O)c1cccc(-c2ccc(Oc3ccc(C(F)(F)F)cc3C(C(=O)N3CCCC3)N3CCNC(=O)C3)cc2)n1 (stereo not shown) [compound 112] , the value recorded as its IC50 is > 20 µM

Given item NC(=O)c1cccc(-c2ccc(Oc3ccc(F)cc3)c(COc3ccc(Cl)cc3I)c2)n1 [compound 94] , the value recorded as its IC50 is > 20 µM

Given item CNC(=O)c1cc(C(F)(F)F)ccc1Oc1ccc(-c2cccc(C(N)=O)n2)cc1 [compound 163] , the value recorded as its IC50 is > 20 µM
